Test system: CAKI-1 renal
assay.name: NCI-60 one-dose screen, 48 h (100 = growth as untreated, 0 = no growth, -100 = all killed)
condition.parameters: 10 µM
The panel holds about 83,000 compounds, 20% with a hit somewhere; the sample as a whole holds those more often.
growth strictly less than 80% = Y. Otherwise N.

A record lists CCOc1ccccc1/C=N\N=C(\N)N/N=C/c1ccccc1OCC . Is its growth below 80%? Y

Next up: CCN(CC)CCN1c2nc3ccccc3cc2Sc2cc3ccccc3nc21 Y

Next up: O=C(CCl)Oc1ccc(OC(=O)CCl)cc1 N

Next up: Clc1ccc(Cc2ccncc2)cc1 N

Next up: O=C1CC(=O)N(C(=O)c2nn(-c3ccc(Cl)cc3)cc2O)N1 Y

---

Tested on: LOX IMVI melanoma
assay.name: NCI-60 one-dose screen, 48 h
condition.parameters: 10 µM
About 83,000 compounds went through this panel and 20% of them were active in at least one assay; those are over-represented in the sample as a whole. Calls of active or inactive are those of the source. The calls were made as follows: active = growth percent below 10; inactive = the rest.
Thanks in advance; please answer with one of these: T = active, F = inactive

For CN(C)CCOc1cccc(-c2nc3sccn3c2-c2ccnc(S(C)(=O)=O)n2)c1 , which call appears in the assay record? F

Next up: COc1cc(-c2nn(-c3ccc(NC(=O)NCCCNC(=O)c4ccccc4)cc3)cc2-c2ccncc2)ccc1Cl F

Next up: O=C1c2ccccc2C(=O)c2c1ccc1c(=O)n(-c3ccccc3C(F)(F)F)nnc21 T

Next up: C1CN(CC2CCC(CN3CCOCC3)O2)CCO1 (stereo unspecified) F

Next up: Cc1cc(Br)nnc1Br F

Next up: CNC(=O)c1c(I)c(NC(C)=O)c(I)c(C(=O)O)c1I F

---

Tested on: OVCAR-3 ovarian
assay.name: NCI-60 one-dose screen, 48 h
condition.parameters: 10 µM
This is part of a sample that, as a whole, favours compounds with a hit. Of some 83,000 tested, about 20% had one in any assay. Active and inactive are the calls of the source. The calls were made as follows: active = growth percent below 10; inactive = the rest.
Thanks in advance; please answer with one of these: true = active, false = inactive

For CCOC(=O)CSc1nc(-c2cc(OC)ccc2OC)cc(-c2ccc(OC)cc2)c1C#N , which call appears in the assay record? false

Next up: COc1ccc(C(=O)CSc2nc(-c3cc(OC)ccc3OC)cc(-c3ccc(OC)cc3)c2C#N)cc1 false

Next up: NC(=O)c1cccc(-n2ccc3cc(NC(=O)Nc4ccc(Cl)c(C(F)(F)F)c4)ccc32)n1 false

Next up: CCN(CC)CCNc1ccc(C)c2sc3cc(Cl)ccc3c(=O)c12 false

Next up: CCn1cc(CNc2ccc(C(=O)Nc3ccc4ccccc4c3)cc2)c(C)n1 false

Next up: COc1cc(/C=C/c2cc(/C=C/c3ccc(O)c(OC)c3)nc(N)n2)ccc1O true

Next up: CC[C@@H](C(=O)[C@H](C)[C@H](O)[C@@H](C)[C@H]1O[C@H]([C@@H](CC)C(=O)N(CC)CC)CC[C@H]1C)C1O[C@]2(C=C[C@@H](O)[C@]3(CC[C@@](C)([C@H]4CC[C@](O)(CC)[C@H](C)O4)O3)O2)[C@H](C)C[C@@H]1C (some centres undefined) false

Next up: O=C(CCCCNC(=O)c1nc(-c2ccccc2)n(-c2ccccc2)n1)NO false

Next up: O=C(Nc1ccc2c(O)cc(S(=O)(=O)O)cc2c1)c1ccc([N+](=O)[O-])cc1 false

Next up: CC(=O)Nc1ccc2c(c1)C(=O)c1cccc(C(=O)O)c1-2 false

Next up: COc1ccc2nc3cc(Cl)ccc3c(Nc3cc(CN4CCCC4)c(O)c(CN4CCCC4)c3)c2n1 false

Next up: O=C(CCc1nnc2sc(-c3cc(O)c(O)c(O)c3)nn12)c1nc2ccccc2[nH]1 false

Next up: COc1ccc(C(c2ccc(OCCN(C)C)cc2)c2cc3ccccc3c3ccccc23)cc1 (centres undefined) false

Next up: CS(=O)(=O)c1nccc(-c2c(-c3cccc(OCc4ccc(F)cc4)c3)nc3sccn23)n1 false

Next up: Clc1ccc(/C=C2\CCCC3C2=Nc2ccccc2NC3c2ccc(Cl)cc2)cc1 (centres undefined) false

Next up: Cc1ccc(C(SCC(N)C(=O)O)(c2ccc(C)cc2)c2ccc(C)cc2)cc1 (centres undefined) true

Next up: N#Cc1c(N)nc(-c2cc(F)cc(C(F)(F)F)c2)nc1-c1ccccc1F false

Next up: O=C1CCn2c1c(O)c1ccccc1c2=O false

Next up: Cc1ccc(-n2nnnc2N)c(C)c1 false
